// values below are reported inhibition
Target: Large neutral amino acids transporter small subunit 1 (Homo sapiens, UniProt Q01650)
Sequence (Q01650 whole entry): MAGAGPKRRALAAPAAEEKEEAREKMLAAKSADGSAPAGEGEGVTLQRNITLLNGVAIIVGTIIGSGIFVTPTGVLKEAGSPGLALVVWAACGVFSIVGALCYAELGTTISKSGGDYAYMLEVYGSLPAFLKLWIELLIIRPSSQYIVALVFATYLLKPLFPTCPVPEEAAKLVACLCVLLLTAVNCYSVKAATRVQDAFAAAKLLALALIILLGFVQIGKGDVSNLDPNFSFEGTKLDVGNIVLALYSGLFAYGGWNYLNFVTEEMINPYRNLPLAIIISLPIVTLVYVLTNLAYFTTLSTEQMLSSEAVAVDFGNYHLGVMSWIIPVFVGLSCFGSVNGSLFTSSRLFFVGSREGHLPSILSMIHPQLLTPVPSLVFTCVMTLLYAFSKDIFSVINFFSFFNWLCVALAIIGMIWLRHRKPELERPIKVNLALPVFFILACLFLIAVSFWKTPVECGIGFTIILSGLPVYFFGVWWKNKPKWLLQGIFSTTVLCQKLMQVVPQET
Experiment: Inhibition of human LAT1 expressed in HEK cells assessed as reduction in uptake of [3H]-gabapentin at 200 uM after 3 mins by scintillation counting based cis-inhibition assay
Assay type: cell-based
Conditions: HEK293
Just the number please, in %, no unit attached.

Entry N[C@@H](Cc1cccc(Cl)c1)C(=O)O needs its inhibition filled in; supply it.
84

Specify measured inhibition for COc1ccc(C[C@H](N)C(=O)O)cc1C .
75

Look up and report measured inhibition for this entry: CCc1cccc(C[C@H](N)C(=O)O)c1
77

Specify measured inhibition for N[C@@H](Cc1cccc(F)c1)C(=O)O .
79

Name the recorded inhibition of the compound listed here: N[C@@H](Cc1ccc(O)c(Cc2ccccc2)c1)C(=O)O
96

Next:
Give me measured inhibition, please, for this compound: N[C@@H](Cc1ccc(O)c(F)c1)C(=O)O
63

Ref: ChEMBL document CHEMBL3808321
